System: mESC Bmi1-luciferase reporter, firefly/renilla ratio, 24 h
test_summary: compounds raising Bmi1 reporter signal – mouse embryonic stem cells, luciferase, cherry-pick, esBAF inhibitor project, dose response (AID 651717);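 note: luciferase knocked into Bmi1 locus with EF-1a renilla as cell number control; rising ratio signals esBAF inhibition which derepresses Bmi1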
AC40 by entry:
endpoint_name: AC40

>>> reading("O=C(NCc1ccccc1)c1cc(-c2cccc(O)c2)on1")
"12.6 µM"
>>> reading("O=C(CNC(=O)c1ccccc1F)Nc1ccc2c(c1)OCO2")
"3.55 µM"
>>> reading("O=C(CN1CCCCCC1)Nc1ccc(Br)cc1Br")
"8.51 µM"
>>> reading("Cc1cc(Cl)c(O)c(-n2nc3ccccc3n2)c1")
"5.74 µM"
>>> reading("CCCCCCCSc1ncnc2[nH]ncc12")
"17.1 µM"
>>> reading("C=CCNc1nc2cc(-c3ccccc3OC)sc2c(=O)n1C")
"5.18 µM"
>>> reading("NC(=O)c1ccc(CSc2nc3ccccc3s2)cc1")
"4.64 µM"

====

Some compounds, each annotated with its measured AC40.
Test system: mESC Bmi1-luciferase reporter, firefly/renilla ratio, 24 h
test_summary: compounds raising Bmi1 reporter signal – mouse embryonic stem cells, luciferase, cherry-pick, esBAF inhibitor project, dose response (AID 651717);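 note: luciferase knocked into Bmi1 locus with EF-1a renilla as cell number control; rising ratio signals esBAF inhibition which derepresses Bmi1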
endpoint_name: AC40

>>> reading("COc1ccccc1C(=O)NCCC(=O)NC1CCC(C)CC1 (centres undefined)")
"4.6 µM"
>>> reading("O=C(c1ccc2ccccc2c1)N1CCN(Cc2ccccc2)CC1")
"9.83 µM"
>>> reading("Cc1ccc2oc3ccccc3c(=O)c2c1")
"7.05 µM"
>>> reading("O=C(Cc1c(O)c2ccccc2oc1=O)c1ccc(F)cc1")
"2 µM"
>>> reading("CC1CCc2c(sc(NC(=O)c3cccn3C)c2C(N)=O)C1 (centres undefined)")
"3.63 µM"
>>> reading("COc1ccc(NC(=O)c2cc3sccc3n2Cc2ccc(F)cc2)cc1OC")
"13.8 µM"
>>> reading("Cc1csc(Nc2nc(N)c(C(=O)Nc3ccccc3)o2)n1")
"3.69 µM"
>>> reading("CCCCc1nc2cc(C(=O)N3CCCCC3C(=O)OC)ccc2o1 (centres undefined)")
"13 µM"
>>> reading("O=C1CCCc2cc3c(ccc4ccccc43)cc21")
"3.18 µM"
>>> reading("Cc1ccc(Cn2cc(-c3ccccc3)nn2)cc1")
"7.62 µM"
>>> reading("Cc1ccc(Nc2nc3c(c(=O)[nH]2)CCCC3)cc1")
"8.9 µM"
>>> reading("Nc1cccc(N=[N+]([O-])c2cccc(N)c2)c1")
"2.11 µM"
>>> reading("CO[C@@H]1CN(C)C(=O)c2ccc(NC(=O)Nc3ccc4c(c3)OCO4)cc2OC[C@H](C)NC[C@@H]1C")
"5 µM"
>>> reading("CN(C)c1ccc(C=Cc2nccc3ccccc23)cc1")
"1.65 µM"
>>> reading("CCCCN(C(=O)CSc1nnc(Nc2ccc(C)c(C)c2)s1)c1c(N)n(Cc2ccccc2)c(=O)[nH]c1=O")
"12.4 µM"
>>> reading("Clc1ccc(-c2cn3cccnc3n2)cc1Cl")
"3.56 µM"
>>> reading("Clc1ccccc1C=NNc1ccccn1")
"2.27 µM"
>>> reading("O=C(Nc1ccc(-c2cnco2)cc1)c1ccc(F)cc1F")
"4.28 µM"
>>> reading("Fc1cc(Cl)cc2ccc(-c3ccccc3)nc12")
"1.45 µM"
>>> reading("N#CCc1nc(CSc2nc3ccccc3o2)cs1")
"12.3 µM"
>>> reading("CN(C)S(=O)(=O)c1cccc(C(=O)Nc2ccc(Cl)cn2)c1")
"5.04 µM"
>>> reading("Cc1cccc(-c2noc(CCC(=O)N3CCN(c4cc(C)ccc4C)CC3)n2)c1")
"2.82 µM"
>>> reading("CCC(C)NC(=O)c1cc(CC(C)C)on1 (centres undefined)")
"6.83 µM"
>>> reading("O=C(NC1CCCCCCC1)c1cccc(Cl)c1")
"10.7 µM"
>>> reading("Nc1n[nH]c(N)c1N=Nc1ccc(Cl)cc1")
"6.31 µM"
>>> reading("COc1nc(Nc2ccc(C(C)C)cc2)nc(OC)n1")
"10.8 µM"
>>> reading("C/C(=N/O)c1cccc(N2Cc3ccccc3C2)c1")
"18.5 µM"
>>> reading("O=C(c1cc(COc2cccc(C(F)(F)F)c2)on1)N1CCCC1")
"17.5 µM"
>>> reading("Cc1sc(NC(=O)c2cccs2)nc1-c1ccccc1")
"5.47 µM"
>>> reading("Cc1ccc(-c2nnn(CC(=O)N(Cc3cccs3)C(C(=O)NC3CCCC3)c3ccncc3)n2)cc1 (centres undefined)")
"34.5 µM"
>>> reading("CCC(=O)c1ccc(N2CCCCCC2)c(F)c1")
"4.92 µM"
>>> reading("Oc1cccc(Nc2nc(O)c(/C=C3\\C=Nc4ccccc43)s2)c1")
"4.88 µM"
>>> reading("Cc1cc(C(=O)Nc2sc(C)c(-c3ccc(F)cc3)c2C(N)=O)no1")
"0.612 µM"
>>> reading("COc1ccccc1C(=O)Nc1cccc2cccnc12")
"13.9 µM"
>>> reading("CC(=O)Nc1ccc(-c2nc3c(C)cccc3[nH]2)cc1")
"1.25 µM"
>>> reading("c1csc(Cc2nc3ccccc3[nH]2)c1")
"16.2 µM"
>>> reading("S=C1NC(c2ccccc2)=NCN1c1ccccc1")
"17.5 µM"
>>> reading("CCC(=O)c1ccc(N2CCC(C)CC2)c(F)c1")
"2.04 µM"
>>> reading("Cc1ccc(NC(=O)c2ccc3c(c2)CCN3S(C)(=O)=O)cc1")
"10.5 µM"
>>> reading("Nc1cc2c3ccccc3ccc2c2ccccc12")
"2.47 µM"
>>> reading("COc1ccc(CNC(=O)c2ccc(-c3ccccc3)cc2)cc1")
"6.89 µM"
>>> reading("Cc1noc(C)c1C(=O)Nc1nc2ccccc2s1")
"3.83 µM"
>>> reading("NC(=O)C1CCN(c2nc(-c3cccc(N)c3)cs2)CC1")
"1.35 µM"
>>> reading("O=C(c1ccc(Cl)cc1)c1cnc(-c2ccc(Cl)cc2)s1")
"2.84 µM"
>>> reading("Cc1ccc(S(=O)(=O)N2CCN(C(=O)c3ccc4ccccc4n3)CC2)c(C)c1")
"6.53 µM"
>>> reading("COc1ccc(CNc2nc3ccccc3s2)cc1OC")
"3.7 µM"
>>> reading("Clc1ccc(-c2nc(Cc3ccccc3)no2)cc1")
"1.85 µM"
>>> reading("COc1cc(/C=N/NC(=O)c2nnn(-c3nonc3N)c2C)ccc1OCc1ccc(Cl)cc1")
"19.7 µM"
>>> reading("COc1ccccc1C(=O)Nc1sc2c(c1C#N)CCC2")
"2.15 µM"

====

Reported AC40 is given for each of the following compounds.
Tested on: mESC Bmi1-luciferase reporter, firefly/renilla ratio, 24 h
test_summary: compounds raising Bmi1 reporter signal – mouse embryonic stem cells, luciferase, cherry-pick, esBAF inhibitor project, dose response (AID 651717);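 note: luciferase knocked into Bmi1 locus with EF-1a renilla as cell number control; rising ratio signals esBAF inhibition which derepresses Bmi1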
endpoint_name: AC40

>>> reading("Cc1ccc2c(CN(C)Cc3ccccc3)cc(=O)oc2c1")
"1.82 µM"
>>> reading("COc1ccc(CN(C(=O)CSc2nnc(-c3c[nH]c4ccccc34)o2)c2ccc(F)cc2)cc1OC")
"7.04 µM"
>>> reading("COc1cc(Cl)c(C)cc1NC(=O)c1cccc(OC)c1OC")
"6.31 µM"
>>> reading("CC(=O)c1sc(Nc2ccc(Oc3ccccc3)cc2)nc1C")
"2.08 µM"
>>> reading("Cc1[nH]c2ccccc2c(=O)c1CN(C)Cc1ccccc1")
"10.4 µM"
>>> reading("Cc1cc(C(=O)Cn2cnc3ccccc3c2=O)c(C)n1C1CC1")
"2.92 µM"

====

Tested on: mESC Bmi1-luciferase reporter, firefly/renilla ratio, 24 h
test_summary: compounds raising Bmi1 reporter signal – mouse embryonic stem cells, luciferase, cherry-pick, esBAF inhibitor project, dose response (AID 651717);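 note: luciferase knocked into Bmi1 locus with EF-1a renilla as cell number control; rising ratio signals esBAF inhibition which derepresses Bmi1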
Reported AC40 by item:
endpoint_name: AC40

>>> reading("O=C(Nc1ccc(SC(F)F)cc1)C12CCC(CC1)C2")
"5.66 µM"
>>> reading("c1ccc(CCNc2ccc3c(c2)Cc2ccccc2-3)nc1")
"1.53 µM"
>>> reading("COc1cccc(NC(=O)c2ccnc(N3CCC(C(=O)NCc4ccccc4OC)CC3)c2)c1")
"8.36 µM"
>>> reading("CC(=O)O/N=C(\\N)c1ccc(-c2csnn2)cc1")
"29.5 µM"
>>> reading("Cc1cccc(C)c1OCc1cc(C(=O)N2CCC(C3CCCCC3)C2)no1 (stereo not drawn)")
"4.72 µM"
>>> reading("Fc1ccc(CSc2ccc(-c3cccs3)nn2)cc1")
"5.03 µM"
>>> reading("COc1cccc(-c2noc(C3CCCN(C(=O)CC(C)(C)C)C3)n2)c1 (stereo not drawn)")
"6.48 µM"
>>> reading("Cc1ccc(C(=O)N2CCc3ccccc32)cc1C")
"3.55 µM"
>>> reading("CCC(=O)Nc1cccc(-c2nnc(-c3ccccc3)o2)c1")
"2.83 µM"
>>> reading("CN(Cc1ccccn1)C(=O)c1cc(COc2ccc(F)c(F)c2)on1")
"3.82 µM"
>>> reading("Cn1c(SCc2ccccc2)nnc1-c1c[nH]c2ccccc12")
"17.9 µM"
>>> reading("CCCC(=O)Nc1ccc2c(c1)C(=O)N(C)C[C@H](OC)[C@@H](C)CN(Cc1ccc(-c3ccccn3)cc1)[C@@H](C)CO2")
"8.13 µM"
>>> reading("COc1ccc(-c2cc(C(=O)N3CCN(c4ccccc4)CC3)no2)cc1")
"5.94 µM"
>>> reading("COc1ccc(NC(=O)c2cc(-c3cccs3)on2)cc1")
"3.06 µM"
>>> reading("Cc1cccc(NC(=O)Nc2cccc(F)c2)n1")
"8.39 µM"
>>> reading("O=C(CCc1nnc(C2(c3ccc(Cl)cc3)CCC2)o1)N1CCCC1")
"3.99 µM"
>>> reading("COc1cccc(NC(=O)C(=O)NCCC2CCCCN2S(=O)(=O)c2cccs2)c1 (stereo not drawn)")
"3.86 µM"
>>> reading("O=C(c1csc(Nc2ccccc2Cl)n1)N1CCCC1")
"1.07 µM"
>>> reading("COc1ccc(NC(=O)c2cc(C3CC3)on2)c(OC)c1")
"11.8 µM"
>>> reading("NC(=O)c1sc2nc(-c3cccs3)ccc2c1N")
"2.75 µM"
>>> reading("Cc1ccccc1NC(=O)c1ccc2c(c1)N(C)CCS2")
"3.39 µM"
>>> reading("CCN(CC)S(=O)(=O)c1cccc(-c2nc3n(n2)Cc2ccccc2-3)c1")
"21.7 µM"
>>> reading("C(=NOCc1ccccc1)c1cccnc1")
"4.28 µM"
>>> reading("Cc1ccc(C(=O)NCCc2nnc(SCC(=O)Nc3nc(-c4ccccc4)cs3)n2C)cc1")
"17.2 µM"
>>> reading("Cc1cc(C)c2c(CN(C)Cc3ccccc3)cc(=O)oc2c1")
"4.9 µM"
>>> reading("COc1cccc(OCc2cc(C(=O)N(C)C3CCCCC3)no2)c1")
"4.53 µM"
>>> reading("O=C(Nc1nc2c(s1)CCc1ccccc1-2)c1cccs1")
"0.9 µM"
>>> reading("COc1ccc(NC(=O)Nc2cccc(C)n2)cc1")
"3.45 µM"
>>> reading("CN(CC(=O)Nc1ccc(Cl)c(C(F)(F)F)c1)C(=O)CCCNC(=O)c1ccc(Cl)cc1")
"16.8 µM"
>>> reading("CCCn1cnc2c(SCCc3ccccc3)nc(N)nc21")
"7.67 µM"
>>> reading("OC(c1ccccc1)c1nc(-c2ccc3c(c2)OCO3)cs1 (stereo not drawn)")
"3.37 µM"
>>> reading("CC(=O)Nc1ccc(NC(=O)c2cc(-c3ccc(F)cc3C)n[nH]2)cc1")
"7.08 µM"
>>> reading("N#CCc1ccc(OC(=O)c2cccnc2Cl)cc1")
"15.7 µM"
>>> reading("Cc1cccc(Oc2ccc(Cl)cc2N)c1")
"5.77 µM"
>>> reading("Cn1c(COc2ccccc2)nc2ccccc21")
"2.59 µM"
>>> reading("O=c1sc(N2CCN(c3ccc(F)cc3)CC2)nc2ccsc12")
"1.76 µM"
>>> reading("CCC(=O)n1nc(-c2ccc(Cl)cc2)nc1SC")
"3.71 µM"
>>> reading("COc1ccc(-n2nc(C(=O)NCC(=O)N3CCN(c4ccccc4)CC3)c3ccccc3c2=O)cc1OC")
"7.98 µM"
>>> reading("COc1ccc(-c2nc(C#N)c(NC(C)C)o2)cc1")
"2.38 µM"
>>> reading("Cc1c(Cl)cccc1NC(=O)c1cc(C2CC2)on1")
"1.81 µM"
>>> reading("OC(c1cccc(F)c1)c1ncc(-c2ccc3ccccc3c2)[nH]1 (stereo not drawn)")
"9.76 µM"
>>> reading("Cc1ccc(O)c(CNc2ccccn2)c1")
"16.7 µM"
>>> reading("COc1cc2ccccc2cc1C(=O)NC1CCCC1")
"8.82 µM"
>>> reading("CC1CCN(C(=O)CCc2nnc(-c3ccccc3)o2)CC1")
"4.2 µM"
>>> reading("Cc1ccc(NCC(=O)N/N=C/c2cc3ccccc3nc2Cl)cc1")
"30.6 µM"
>>> reading("Cc1ccc(OCc2cc(C(=O)NCCc3cccnc3)no2)cc1C")
"11.9 µM"
>>> reading("CC(=O)Nc1ccc2nc(SCC(=O)Nc3ccc(N4CCOCC4)c(Cl)c3)sc2c1")
"3.57 µM"
>>> reading("CCCC(=O)Nc1sc2c(c1C#N)CCCCC2")
"2.39 µM"

All figures here come from PubChem BioAssay AID651717.
